Experimental System: tadA (tRNA-specific adenosine deaminase) (Escherichia coli, UniProt P68398, F149G)
Construct: his-tagged tadA
Sequence (P68398 whole entry F149G): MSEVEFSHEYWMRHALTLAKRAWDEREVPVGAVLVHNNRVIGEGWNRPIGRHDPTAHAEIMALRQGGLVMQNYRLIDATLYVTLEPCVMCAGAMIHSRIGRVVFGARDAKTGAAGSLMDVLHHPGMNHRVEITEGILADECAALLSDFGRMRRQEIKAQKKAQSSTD
Experimental Details: tryptophan fluorescence quenching titration with purified protein
Measured Attribute: Kd (µM)

Compound: CC(C)=CCC[C@@H](C)c1ccc(C)c(O)c1 [xanthorrhizol]
Assay Result: 32.8
